Data provenance: PubChem BioAssay

biological target: Neurogenic locus notch homolog protein 2 (Homo sapiens) (UniProt Q04721); experiment: Notch2 binders on small-molecule microarrays, primary screen, biochemical, small-molecule microarray, 635 nm fluorescence, stem cell growth factors (AID 1073); settings: Notch2 binding, higher = more signal
Sequence (Q04721 whole entry, looked up): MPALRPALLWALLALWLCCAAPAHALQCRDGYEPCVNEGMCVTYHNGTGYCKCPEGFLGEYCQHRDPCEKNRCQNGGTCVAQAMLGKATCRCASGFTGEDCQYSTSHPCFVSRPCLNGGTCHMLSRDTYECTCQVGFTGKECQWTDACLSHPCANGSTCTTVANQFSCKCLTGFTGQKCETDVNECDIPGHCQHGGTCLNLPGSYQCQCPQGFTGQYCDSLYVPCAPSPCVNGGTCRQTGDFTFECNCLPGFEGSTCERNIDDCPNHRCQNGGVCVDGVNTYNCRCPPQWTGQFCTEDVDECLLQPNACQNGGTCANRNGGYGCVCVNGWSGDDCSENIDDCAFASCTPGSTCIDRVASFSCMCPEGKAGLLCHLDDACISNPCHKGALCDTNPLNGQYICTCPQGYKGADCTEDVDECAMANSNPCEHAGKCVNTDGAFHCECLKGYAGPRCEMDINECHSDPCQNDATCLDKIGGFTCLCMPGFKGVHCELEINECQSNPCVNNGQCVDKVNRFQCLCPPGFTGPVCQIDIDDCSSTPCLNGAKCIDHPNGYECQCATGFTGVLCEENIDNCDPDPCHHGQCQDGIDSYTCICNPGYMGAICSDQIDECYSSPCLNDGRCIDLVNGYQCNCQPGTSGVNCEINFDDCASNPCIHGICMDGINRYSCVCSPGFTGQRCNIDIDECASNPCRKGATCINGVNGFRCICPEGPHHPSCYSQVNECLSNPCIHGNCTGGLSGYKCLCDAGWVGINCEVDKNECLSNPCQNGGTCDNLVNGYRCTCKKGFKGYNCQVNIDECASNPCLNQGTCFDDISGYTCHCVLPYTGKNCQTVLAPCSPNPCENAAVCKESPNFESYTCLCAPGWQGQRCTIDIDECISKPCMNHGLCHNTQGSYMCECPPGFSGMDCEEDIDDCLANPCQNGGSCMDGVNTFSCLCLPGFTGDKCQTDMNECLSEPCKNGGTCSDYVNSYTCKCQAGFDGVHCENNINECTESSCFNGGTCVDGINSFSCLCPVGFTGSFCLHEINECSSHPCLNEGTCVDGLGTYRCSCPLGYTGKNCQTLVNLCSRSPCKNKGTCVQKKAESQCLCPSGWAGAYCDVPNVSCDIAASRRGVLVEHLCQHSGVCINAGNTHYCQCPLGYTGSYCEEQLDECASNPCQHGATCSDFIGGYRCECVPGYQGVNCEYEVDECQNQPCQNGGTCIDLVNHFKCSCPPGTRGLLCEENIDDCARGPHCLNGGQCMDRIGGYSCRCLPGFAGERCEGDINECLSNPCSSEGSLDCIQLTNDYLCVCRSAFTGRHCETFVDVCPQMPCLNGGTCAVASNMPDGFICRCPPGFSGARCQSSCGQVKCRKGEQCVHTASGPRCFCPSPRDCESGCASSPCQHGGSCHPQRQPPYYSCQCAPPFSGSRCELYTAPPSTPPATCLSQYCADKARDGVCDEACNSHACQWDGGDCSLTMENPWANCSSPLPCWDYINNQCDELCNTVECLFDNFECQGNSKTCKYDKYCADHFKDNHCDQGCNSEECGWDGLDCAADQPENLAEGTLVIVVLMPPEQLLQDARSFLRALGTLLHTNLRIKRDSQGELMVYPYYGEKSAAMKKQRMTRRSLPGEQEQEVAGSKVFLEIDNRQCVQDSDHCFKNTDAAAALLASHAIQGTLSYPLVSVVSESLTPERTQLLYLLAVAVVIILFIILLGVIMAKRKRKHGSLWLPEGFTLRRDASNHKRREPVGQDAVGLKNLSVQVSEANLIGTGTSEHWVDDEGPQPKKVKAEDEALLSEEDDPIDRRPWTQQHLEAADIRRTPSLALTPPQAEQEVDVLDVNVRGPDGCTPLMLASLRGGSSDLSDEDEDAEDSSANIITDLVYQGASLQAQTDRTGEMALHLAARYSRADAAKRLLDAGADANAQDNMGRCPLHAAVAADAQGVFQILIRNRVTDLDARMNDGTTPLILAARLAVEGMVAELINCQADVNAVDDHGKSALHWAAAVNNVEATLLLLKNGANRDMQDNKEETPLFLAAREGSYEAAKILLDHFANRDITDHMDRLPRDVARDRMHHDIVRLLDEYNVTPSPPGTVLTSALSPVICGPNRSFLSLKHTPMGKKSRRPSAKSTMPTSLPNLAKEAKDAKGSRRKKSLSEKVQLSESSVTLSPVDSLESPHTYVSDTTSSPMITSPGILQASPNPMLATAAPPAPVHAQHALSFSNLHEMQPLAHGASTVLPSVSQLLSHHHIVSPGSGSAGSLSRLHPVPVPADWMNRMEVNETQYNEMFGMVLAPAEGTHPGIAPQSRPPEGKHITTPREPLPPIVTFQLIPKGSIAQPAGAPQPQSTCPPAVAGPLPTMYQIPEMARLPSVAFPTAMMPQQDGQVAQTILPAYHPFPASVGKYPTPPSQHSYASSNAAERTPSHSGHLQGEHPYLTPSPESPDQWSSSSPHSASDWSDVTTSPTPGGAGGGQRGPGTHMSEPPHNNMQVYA
Listed here: items and their measured composite z-score.
property: composite z-score

| molecule | property | observedResult |
| --- | --- | --- |
| C=CCOC(=O)[C@H]1[C@@H]2C(=O)O[C@@H](c3ccccc3)[C@@H](c3ccccc3)N2[C@@H](c2ccc(OCCOC(=O)[C@H]3C[C@H]4C(=O)N[C@@H](CCCC[N+](C)(C)C)C(=O)N4[C@H]3c3ccc(O)cc3)cc2)[C@]12C(=O)Nc1ccc(I)cc12 | composite z-score | -0.295 |
| CC(C)C[C@@H]1NC(=O)[C@@H]2C[C@H](C(=O)O)[C@H](c3cccc(OCCO)c3)N2C1=O | composite z-score | -0.475 |
| CN1C(=O)C2C=CC(C(O)C3CC=CCC3)N(N(c3ccccc3)c3ccccc3)C2C1=O (stereo not drawn) | composite z-score | 0.172 |
| C=CCOC(=O)[C@@H]1[C@H]2C(=O)O[C@H](c3ccccc3)[C@H](c3ccccc3)N2[C@H](c2ccc(OCCOC(=O)[C@H]3C[C@H]4C(=O)N5CCC[C@H]5C(=O)N4[C@H]3c3ccc(O)cc3)cc2)[C@@]12C(=O)Nc1ccc(I)cc12 | composite z-score | 0.929 |
| CCC(CC)C(O)C1C=CC2C(=O)NC(=O)C2N1Nc1ccc(Cl)cc1Cl (stereo not drawn) | composite z-score | 1.42 |
| O=C1C2C=CC(C(O)Cc3ccccc3)N(n3cnnc3)C2C(=O)N1Cc1ccccc1 (stereo not drawn) | composite z-score | 1.43 |
| CC(C)=CCCC(C)=CC(O)C1C=CC2C(=O)N(C)C(=O)C2N1Nc1ccccc1 (stereo not drawn) | composite z-score | 1.6 |
| CCN(CC)c1ccc(N2CC=CC34O[C@@H]5C=CCCOC(=O)C5[C@H]3C(=O)N(CCCCCCO)[C@@H]4C2=O)cc1 (stereo partly drawn) | composite z-score | -0.439 |
| COc1ccc(CCNC(=O)[C@@]2(Sc3ccc(C)cc3)CC(=O)N(C(C)C)[C@@H]2c2ccc(CO)cc2I)cc1 | composite z-score | -0.83 |
| COC(=O)[C@@]1(Cc2ccc(F)cc2)[C@H]2c3cc(C(=O)N4CCCC4)n(CCCNc4ncc(C(F)(F)F)cc4Cl)c3C[C@H]2CN1C(=O)c1ccccc1 | composite z-score | 1.66 |
| O=C1C[C@@](C(=O)NCCN2CCOCC2)(c2ccc([N+](=O)[O-])cc2)[C@@H](c2ccc(CO)cc2I)N1CC12CC3CC(CC(C3)C1)C2 | composite z-score | 0.926 |
| CO[C@H]1O[C@H](CO)[C@@H](OC(=O)Nc2ccc(Oc3ccccc3)cc2)[C@H](OC(=O)Nc2ccc3c(c2)OCO3)[C@H]1OC(=O)Nc1ccc2c(c1)OCO2 | composite z-score | 1.5 |
| C=CCC(OC(C)=O)[C@@H]1[C@@H](N(Cc2cccc3ccccc23)C(=O)c2ccc(-c3ccccc3)cc2)c2cc(OCCCO)ccc2N1C(=O)c1ccc2ccccc2c1 (stereo partly drawn) | composite z-score | 0.104 |
